# Procedure summary: Oral pharmacokinetic study in rats
# Assay type: in vivo, Male Wistar rats
# Condition set: male, Wistar, rat, plasma, single oral dose 25 mg·kg^−1
Recorded endpoint: AUC(0-inf) (ng·h/mL)
Entry rule: numbers only, all in ng·h/mL.

Notebook: O=C(c1cc(Cc2n[nH]c(=O)c3ccccc23)ccc1F)N1CCN(C(=O)C2CC2)CC1 , AUC(0-inf) read as 913

----------
# Procedure summary: Saturation solubility of pure OLA and its NCs
# Format: physicochemical
# Condition set: phosphate buffer (PBS) with 0.5% Soluplus, pH 7.4, aqueous with cosolvent or surfactant or cyclodextrin, thermodynamic from solid; in PBS with 0.5% Soluplus; 37 °C, 72 h
# Method: The excess amount of pure OLA and NCs in triplicate were added into 1 mL of each solvent in glass vials. The mixtures were vortexed for 30 s and put into an orbital shaking (at 100 stroke per min) water bath (Julabo®, Allentown, PA, USA) maintained at 37 ± 1 °C for 72 h. […] Then, the supernatants were collected, filtered by 0.45 µ filtration unit (Millipore, Molsheim, France), diluted (if needed) and 30 µL was injected into HPLC-UV system for the quantification of the dissolved drugs.
Recorded endpoint: solubility at 72 h (µg/mL)
Your answer is read as µg/mL, so omit the unit and give the number.

Reported solubility at 72 h ( O=C(c1cc(Cc2n[nH]c(=O)c3ccccc23)ccc1F)N1CCN(C(=O)C2CC2)CC1 ) = 35.6

----------
# Procedure summary: Oral pharmacokinetic study in rats
# Format: in vivo, Male Wistar rats
# Condition set: male, Wistar, rat, single oral dose 25 mg·kg^−1, plasma
Recorded endpoint: Cmax (ng/mL)
I only need the number, in ng/mL, no unit after it.

Given item O=C(c1cc(Cc2n[nH]c(=O)c3ccccc23)ccc1F)N1CCN(C(=O)C2CC2)CC1 [OLA, Olaparib] , the value recorded as its Cmax is 278

----------
# Procedure summary: Saturation solubility of pure OLA and its NCs
# Type: physicochemical
# Condition set: phosphate buffer (PBS), pH 7.4, aqueous buffer, thermodynamic from solid; in PBS; 37 °C, 72 h
Recorded endpoint: solubility at 72 h (µg/mL)
Output spec: scalar in µg/mL, unitless text.

The molecule identified as O=C(c1cc(Cc2n[nH]c(=O)c3ccccc23)ccc1F)N1CCN(C(=O)C2CC2)CC1 registered its solubility at 72 h at 9.3

----------
# Procedure summary: Saturation solubility of pure OLA and its NCs
# Format: physicochemical
# Condition set: phosphate buffer (PBS) with 0.5% Tween-80, pH 7.4, aqueous with cosolvent or surfactant or cyclodextrin, thermodynamic from solid; in PBS with 0.5% Tween-80; 37 °C, 72 h
Recorded endpoint: solubility at 72 h (µg/mL)
Quick note: give the figure in µg/mL, leave out the unit.

get_value(item= O=C(c1cc(Cc2n[nH]c(=O)c3ccccc23)ccc1F)N1CCN(C(=O)C2CC2)CC1 [OLA, Olaparib] , readout=solubility at 72 h) returns 14.2

----------
# Procedure summary: Saturation solubility of pure OLA and its NCs
# Assay type: physicochemical
# Condition set: 0.1N HCl with 0.5% Soluplus, 37 °C, aqueous with cosolvent or surfactant or cyclodextrin, thermodynamic from solid; in 0.1N HCl (pH 1.2) with 0.5% Soluplus
Recorded endpoint: solubility (µg/mL)
Kindly provide the numeric value in µg/mL only, without the unit symbol.

Given item O=C(c1cc(Cc2n[nH]c(=O)c3ccccc23)ccc1F)N1CCN(C(=O)C2CC2)CC1 , the value recorded as its solubility is 31.1

----------
# Procedure summary: Saturation solubility of pure OLA and its NCs
# Format: physicochemical
# Condition set: 37 °C, simulated gastric fluid, thermodynamic from solid; in 0.1N HCl (pH 1.2)
Recorded endpoint: solubility (µg/mL)
# unit: µg/mL | format: bare number

get_value(item= O=C(c1cc(Cc2n[nH]c(=O)c3ccccc23)ccc1F)N1CCN(C(=O)C2CC2)CC1 , readout=solubility) returns 7.1

----------
# Procedure summary: Oral pharmacokinetic study in rats
# Format: in vivo, Male Wistar rats
# Condition set: male, Wistar, rat, plasma, single oral dose 25 mg·kg^−1
Recorded endpoint: half-life (min)
Your answer is read as min, so omit the unit and give the number.

Memo: O=C(c1cc(Cc2n[nH]c(=O)c3ccccc23)ccc1F)N1CCN(C(=O)C2CC2)CC1 , reported half-life: 81.6

----------
# Procedure summary: Oral pharmacokinetic study in rats
# Assay type: in vivo, Male Wistar rats
# Condition set: male, Wistar, rat, plasma, single oral dose 25 mg·kg^−1, read-out: AUC0–12 h
Recorded endpoint: AUC(0-t)
Answer format: number, then unit.

// sample O=C(c1cc(Cc2n[nH]c(=O)c3ccccc23)ccc1F)N1CCN(C(=O)C2CC2)CC1 , its AUC(0-t) was 882 ng·h/mL
